Settings: in isobutanol, 293.15 K
measurement_label: solubility (mole fraction)
Give bare numbers.

*Q* Which solubility (mole fraction) reading was recorded for the molecule `Cc1c(C(=O)O)cccc1[N+](=O)[O-]` ?
*A* 0.0166

###

Conditions: in n-propanol, 313.15 K
measurement_label: solubility (mole fraction)
One number for each entry.

*Q* Which solubility (mole fraction) reading was recorded for the compound `Cc1c(C(=O)O)cccc1[N+](=O)[O-]` ?
*A* 0.0519

###

Details: in DMF, 298.15 K
measurement_label: solubility (mole fraction)
Give bare numbers.

*Q* Which solubility (mole fraction) reading was recorded for the compound `Cc1c(C(=O)O)cccc1[N+](=O)[O-]` ?
*A* 0.244
